Target: T1, PEAK1^IDR1 (residues 1082-1746), from insect cells, phosphorylated by Src (human, UniProt Q9H792 1082-1746, phosphotyrosine at Y1107 (by Src in vitro, shown by MS/MS); other Src sites not stated; biotin (EZ-Link NHS-PEG4-Biotin, 1:1 molar ratio))
T1 construct: human PEAK1, UniProt Q9H792, residues 1082-1746; also called PEAK1-IDR1 (+ Src phosphorylation); source: Sf21 insect cells, purified; phosphorylated in vitro with recombinant Src kinase domain
T1 sequence (looked up): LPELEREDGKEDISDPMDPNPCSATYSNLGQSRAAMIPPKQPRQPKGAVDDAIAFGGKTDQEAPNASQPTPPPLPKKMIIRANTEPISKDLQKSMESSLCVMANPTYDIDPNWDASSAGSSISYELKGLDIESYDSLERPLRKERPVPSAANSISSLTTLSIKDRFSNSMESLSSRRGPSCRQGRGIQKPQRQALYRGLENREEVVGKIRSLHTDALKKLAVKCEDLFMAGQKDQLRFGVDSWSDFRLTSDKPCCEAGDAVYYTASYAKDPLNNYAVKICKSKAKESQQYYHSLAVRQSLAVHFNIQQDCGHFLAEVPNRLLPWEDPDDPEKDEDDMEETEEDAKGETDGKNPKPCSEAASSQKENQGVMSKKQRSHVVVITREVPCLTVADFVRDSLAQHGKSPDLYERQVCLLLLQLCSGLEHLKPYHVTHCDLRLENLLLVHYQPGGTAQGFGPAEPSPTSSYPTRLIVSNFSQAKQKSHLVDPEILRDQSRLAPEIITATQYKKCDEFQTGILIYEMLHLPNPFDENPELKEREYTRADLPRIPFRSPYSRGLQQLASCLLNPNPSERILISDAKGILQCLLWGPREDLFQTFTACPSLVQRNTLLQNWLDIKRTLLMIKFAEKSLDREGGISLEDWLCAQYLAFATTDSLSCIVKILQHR
Test: SPR; biotinylated PEAK proteins (with or without Src phosphorylation) captured with a biotin CAPture kit, CrkII NSH3 as analyte; Biacore 8K+, 20 °C, HBS-TP (150 mM NaCl); 1 M NaCl regeneration; steady state
Conditions: both partners purified
READOUT: pKd
Give bare numbers, as −log10 of the molar value.

Ask: Complete the entry with pKd for CrkII N-terminal SH3 domain (CrkII^NSH3, residues 134-191) (domain or fragment, human, UniProt P46108-1 134-191, looked up, human CrkII NSH3 domain, UniProt P46108-1, residues 134-191; Amine coupled to a CM5 chip in a2; analyte in a4; in the syringe in ITC) AEYVRALFDFNGNDEEDLPFKKGDILRIRDKPEEQWWNAEDSEGKRGMIPVPYVEKYR
Reply: 5.39
